# target-under-test: T1, FZD3 cysteine-rich domain (CRD), MYC-tagged and GPI-anchored on CHO cells (human, UniProt Q9NPG1 24-150, GPI anchor)
# T1 construct: domain: cysteine-rich domain (CRD); also called FZD3 CRD; CHO-myc-FZDGPI; not shown: MYC tag and GPI anchor signal
# T1 sequence (looked up): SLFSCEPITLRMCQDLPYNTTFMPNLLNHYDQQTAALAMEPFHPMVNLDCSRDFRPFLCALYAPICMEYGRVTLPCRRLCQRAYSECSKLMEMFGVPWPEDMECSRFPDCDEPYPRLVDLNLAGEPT
# protocol-notes: flow cytometry, CHO-CRD cells;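 note: flow cytometry of Fab binding to CHO cells overexpressing a Frizzled CRD, with binding defined as median fluorescence over twice that of CHO cells lacking any Frizzled CRD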
median fluorescence less than 4 is 1 (yes); median fluorescence greater than or equal to 4 is 0 (no).

Look over these answered cases.
query: Lab note: confirm whether the reported median fluorescence for this binder is below 4, equality not counting. binder: Fab-2927 (Fab, V domains shown, Fab; also called Fv-2927) VH: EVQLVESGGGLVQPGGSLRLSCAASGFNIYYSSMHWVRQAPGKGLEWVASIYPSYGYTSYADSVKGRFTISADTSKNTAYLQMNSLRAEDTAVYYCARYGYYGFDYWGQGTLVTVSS VL: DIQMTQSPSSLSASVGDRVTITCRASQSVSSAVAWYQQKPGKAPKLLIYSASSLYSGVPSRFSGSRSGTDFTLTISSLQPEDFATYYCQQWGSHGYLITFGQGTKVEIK
result: 0 (no)

query: Query Fab-2898 (Fab, V domains shown, Fab; also called Fv-2898) VH: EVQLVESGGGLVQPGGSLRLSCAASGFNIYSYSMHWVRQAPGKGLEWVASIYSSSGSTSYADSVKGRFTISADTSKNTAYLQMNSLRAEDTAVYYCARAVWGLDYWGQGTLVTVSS VL: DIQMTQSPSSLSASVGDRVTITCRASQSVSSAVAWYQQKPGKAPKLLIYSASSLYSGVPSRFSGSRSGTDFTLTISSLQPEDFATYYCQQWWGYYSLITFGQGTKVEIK next
result: 0 (no)

query: Request: Fab-2929 (Fab, V domains shown, Fab; also called Fv-2929) VH: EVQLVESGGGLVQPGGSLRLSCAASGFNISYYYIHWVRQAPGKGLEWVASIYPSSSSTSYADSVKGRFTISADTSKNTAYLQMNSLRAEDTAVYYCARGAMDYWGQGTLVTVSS VL: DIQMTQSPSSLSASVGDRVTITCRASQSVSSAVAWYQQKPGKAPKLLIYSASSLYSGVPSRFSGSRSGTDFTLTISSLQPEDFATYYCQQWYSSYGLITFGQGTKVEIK
result: 1 (yes)

Now consider the entry below.
query: I'd appreciate it if you could check whether Fab-2934 (Fab, V domains shown, Fab; also called Fv-2934) VH: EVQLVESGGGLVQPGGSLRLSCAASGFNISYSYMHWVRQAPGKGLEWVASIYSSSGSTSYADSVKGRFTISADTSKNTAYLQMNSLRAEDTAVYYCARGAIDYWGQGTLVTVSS VL: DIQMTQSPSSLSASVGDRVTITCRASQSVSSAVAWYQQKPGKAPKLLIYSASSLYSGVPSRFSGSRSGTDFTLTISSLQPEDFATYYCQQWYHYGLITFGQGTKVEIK has median fluorescence smaller than 4.
result: 1 (yes)
